Here the recorded MIC is given for each entry.
- Test system: Escherichia coli
- assayMethodText: Antibacterial activity against Escherichia coli ATCC 25922 assessed as reduction in microbial growth incubated for 16 to 20 hrs by CLSI protocol based Muller Hinton broth assay
- Assay type: functional
- conditionSummary: time 16-20 hrs
Square brackets hold non-standard residues; d marks the D form. Peptide text beside a SMILES is read from it. 2Nal = N[C@@H](Cc1ccc2ccccc2c1)C(=O)O; hIle = CC[C@H](C)C[C@H](N)C(=O)O; Cha = N[C@@H](CC1CCCCC1)C(=O)O

molecule | MIC
CC(C)C[C@H](NC(=O)[C@H](CC(C)C)NC(=O)[C@@H](NC(=O)[C@H](CCCCN)NC(=O)[C@H](CC1CCCCC1)NC(=O)[C@H](CCCNC(=N)N)NC(=O)[C@H](CCCCN)NC(=O)[C@H](CC(C)C)NC(=O)[C@H](CC(C)C)NC(=O)CN)[C@@H](C)O)C(N)=O (H-GLLKR[Cha]KTLL-NH2) | 28.4 µM
CC[C@H](C)C[C@H](NC(=O)[C@H](CCCNC(=N)N)NC(=O)[C@H](CCCCN)NC(=O)[C@H](CC(C)C)NC(=O)[C@H](CC(C)C)NC(=O)CN)C(=O)N[C@@H](CCCCN)C(=O)N[C@H](C(=O)N[C@@H](CC(C)C)C(=O)N[C@@H](Cc1ccc2ccccc2c1)C(N)=O)[C@@H](C)O (H-GLLKR[hIle]KTL[2Nal]-NH2) | 22.1 µM
CC[C@H](C)[C@H](NC(=O)[C@H](Cc1ccccc1)NC(=O)[C@H](CCCCN)NC(=O)[C@H](CC(C)C)NC(=O)[C@H](CC(C)C)NC(=O)CN)C(=O)N[C@@H](CCCCN)C(=O)N[C@@H](Cc1c[nH]c2ccccc12)C(=O)N[C@@H](CC(C)C)C(=O)N[C@@H](CC(C)C)C(N)=O (H-GLLKFIKWLL-NH2) | 22.1 µM

* * *

- assayMethodText: Hemolytic activity in human RBC assessed as hemolysis
- Assay type: toxicity, cell-based, Erythrocyte
- conditionSummary: red blood cells
Peptide text beside a SMILES is read from it.

compound | HC50
CC[C@H](C)[C@H](NC(=O)[C@@H](NC(=O)[C@H](CCCCN)NC(=O)[C@H](CC(C)C)NC(=O)[C@H](CC(C)C)NC(=O)CN)C(C)C)C(=O)N[C@@H](CCCCN)C(=O)N[C@H](C(=O)N[C@@H](CC(C)C)C(=O)N[C@@H](CC(C)C)C(N)=O)C(C)C (H-GLLKVIKVLL-NH2) | 190 µM
CC[C@H](C)[C@H](NC(=O)[C@H](Cc1c[nH]c2ccccc12)NC(=O)[C@H](CCCCN)NC(=O)[C@H](CC(C)C)NC(=O)[C@H](CC(C)C)NC(=O)CN)C(=O)N[C@@H](CCCCN)C(=O)N[C@H](C(=O)N[C@@H](CC(C)C)C(=O)N[C@@H](CC(C)C)C(N)=O)[C@@H](C)O (H-GLLKWIKTLL-NH2) | 14 µM
CC[C@H](C)[C@H](NC(=O)[C@H](CCCCN)NC(=O)[C@H](CCCCN)NC(=O)[C@H](CC(C)C)NC(=O)[C@H](CC(C)C)NC(=O)CN)C(=O)N[C@@H](CCCCN)C(=O)N[C@H](C(=O)N[C@@H](CC(C)C)C(=O)N[C@@H](CC(C)C)C(N)=O)[C@@H](C)O | 269 µM
CC[C@H](C)[C@H](NC(=O)[C@H](CCCNC(=N)N)NC(=O)[C@H](CCCCN)NC(=O)[C@H](CC(C)C)NC(=O)[C@H](CC(C)C)NC(=O)CN)C(=O)N[C@@H](CCCCN)C(=O)N[C@@H](CC(N)=O)C(=O)N[C@@H](CC(C)C)C(=O)N[C@@H](CC(C)C)C(N)=O (H-GLLKRIKNLL-NH2) | 79.2 µM

* * *

- Tested on: Bacillus subtilis
- assayMethodText: Antibacterial activity against Bacillus subtilis ATCC 23857 assessed as reduction in bacterial cell growth measured for 18 hrs by Mueller-Hinton broth based two-fold serial dilution method
- Format: functional
Square brackets hold non-standard residues; d marks the D form. Peptide text beside a SMILES is read from it. * marks the point of attachment. NMeR = CN[C@@H](CCCNC(=N)N)C(=O)O; NMeI = CC[C@H](C)[C@H](NC)C(=O)O; NMeL = CN[C@@H](CC(C)C)C(=O)O; Undecanoyl = CCCCCCCCCCC(=O)*; NMeK = CN[C@@H](CCCCN)C(=O)O; Nonanoyl = CCCCCCCCC(=O)*
Here the recorded MIC is given for each entry.
experimentalReadout: MIC (µM)

compound | systemName | experimentalReadout | unitString | readoutNumber
CCCCCCCCC(=O)NCC(=O)N[C@@H](CC(C)C)C(=O)N(C)[C@@H](CC(C)C)C(=O)N[C@@H](CCCCN)C(=O)N[C@@H](CCCNC(=N)N)C(=O)N(C)[C@H](C(=O)N[C@@H](CCCCN)C(=O)N[C@H](C(=O)N[C@@H](CC(C)C)C(=O)N[C@@H](CC(C)C)C(N)=O)[C@@H](C)O)[C@@H](C)CC (Nonanoyl-GL[NMeL]KR[NMeI]KTLL-NH2) | Bacillus subtilis | MIC | µM | 8
CCCCCCCCCCC(=O)NCC(=O)N[C@@H](CC(C)C)C(=O)N(C)[C@@H](CC(C)C)C(=O)N[C@@H](CCCCN)C(=O)N[C@@H](CCCNC(=N)N)C(=O)N(C)[C@H](C(=O)N[C@@H](CCCCN)C(=O)N[C@H](C(=O)N[C@@H](CC(C)C)C(=O)N[C@@H](CC(C)C)C(N)=O)[C@@H](C)O)[C@@H](C)CC (Undecanoyl-GL[NMeL]KR[NMeI]KTLL-NH2) | Bacillus subtilis | MIC | µM | 4
CCCCCCCCCCC(=O)NCC(=O)N[C@@H](CC(C)C)C(=O)N[C@@H](CC(C)C)C(=O)N[C@@H](CCCCN)C(=O)N(C)[C@@H](CCCNC(=N)N)C(=O)N[C@H](C(=O)N(C)[C@@H](CCCCN)C(=O)N[C@H](C(=O)N[C@@H](CC(C)C)C(=O)N[C@@H](CC(C)C)C(N)=O)[C@@H](C)O)[C@@H](C)CC (Undecanoyl-GLLK[NMeR]I[NMeK]TLL-NH2) | Bacillus subtilis | MIC | µM | 8

* * *

- Test system: Zymomonas mobilis
- assayMethodText: Antibacterial activity against Zymomonas mobilis ATCC 10988 assessed as reduction in bacterial growth incubated for 24 hrs by broth micro-dilution method
- Type: functional
Peptide text beside a SMILES is read from it.
experimentalReadout: MIC (µM)

molecule | systemName | readoutNumber
CC[C@H](C)[C@H](NC(=O)[C@H](CCCCN)NC(=O)[C@H](CC(C)C)NC(=O)[C@H](CC(C)C)NC(=O)CN)C(=O)N[C@H](C(=O)N[C@@H](CCCCN)C(=O)N[C@@H](CCCNC(=N)N)C(=O)N[C@@H](CC(C)C)C(=O)N[C@@H](CC(C)C)C(N)=O)[C@@H](C)CC (H-GLLKIIKRLL-NH2) | Zymomonas mobilis | 33.9
CC[C@H](C)[C@H](NC(=O)[C@H](Cc1ccccc1)NC(=O)[C@H](CCCCN)NC(=O)[C@H](CC(C)C)NC(=O)[C@H](CC(C)C)NC(=O)CN)C(=O)N[C@@H](CCCCN)C(=O)N[C@@H](CCCNC(=N)N)C(=O)N[C@@H](CC(C)C)C(=O)N[C@@H](CC(C)C)C(N)=O (H-GLLKFIKRLL-NH2) | Zymomonas mobilis | 17.4
CC[C@H](C)[C@H](NC(=O)[C@H](Cc1ccccc1)NC(=O)[C@H](CCCCN)NC(=O)[C@H](CC(C)C)NC(=O)[C@H](CC(C)C)NC(=O)[C@@H](N)CCCCN)C(=O)N[C@@H](CCCCN)C(=O)N[C@@H](CCCCN)C(=O)N[C@@H](CC(C)C)C(=O)N[C@@H](CC(C)C)C(N)=O (H-KLLKFIKKLL-NH2) | Zymomonas mobilis | 8.9

* * *

Here the recorded MIC is given for each entry.
- Tested on: Escherichia coli
- assayMethodText: Antibacterial activity against Escherichia coli ATCC 25922 assessed as reduction in bacterial growth incubated for 18 to 24 hrs by broth microdilution method
- Format: functional
- conditionSummary: time 18-24 hrs
Square brackets hold non-standard residues; d marks the D form. Peptide text beside a SMILES is read from it. 2Nal = N[C@@H](Cc1ccc2ccccc2c1)C(=O)O; Cha = N[C@@H](CC1CCCCC1)C(=O)O

compound | systemName | MIC, µM
CC[C@H](C)[C@H](NC(=O)[C@H](CCCNC(=N)N)NC(=O)[C@H](CCCCN)NC(=O)[C@H](CC(C)C)NC(=O)[C@H](CC(C)C)NC(=O)CN)C(=O)N[C@@H](CCCCN)C(=O)N[C@@H](CCCCN)C(=O)N[C@@H](CC(C)C)C(=O)N[C@@H](CC1CCCCC1)C(N)=O (H-GLLKRIKKL[Cha]-NH2) | Escherichia coli | 9.5
CC[C@H](C)[C@H](NC(=O)[C@H](CCCCN)NC(=O)[C@H](CCCCN)NC(=O)[C@H](CC(C)C)NC(=O)[C@H](CC1CCCCC1)NC(=O)CN)C(=O)N[C@@H](CCCCN)C(=O)N[C@@H](CCCCN)C(=O)N[C@@H](CC(C)C)C(=O)N[C@@H](CC1CCCCC1)C(N)=O (H-G[Cha]LKKIKKL[Cha]-NH2) | Escherichia coli | 4.6
CC(C)C[C@H](NC(=O)[C@H](CC(C)C)NC(=O)[C@H](CCCCN)NC(=O)[C@H](CCCCN)NC(=O)[C@H](Cc1ccc2ccccc2c1)NC(=O)[C@H](CCCNC(=N)N)NC(=O)[C@H](CCCCN)NC(=O)[C@H](CC(C)C)NC(=O)[C@H](CCCCN)NC(=O)CN)C(N)=O (H-GKLKR[2Nal]KKLL-NH2) | Escherichia coli | 9.5
CC(C)C[C@H](NC(=O)CN)C(=O)N[C@@H](CC(C)C)C(=O)N[C@@H](CCCCN)C(=O)N[C@@H](CCCCN)C(=O)N[C@@H](Cc1ccc2ccccc2c1)C(=O)N[C@@H](CCCCN)C(=O)N[C@H](C(=O)N[C@@H](CC(C)C)C(=O)N[C@@H](CC1CCCCC1)C(N)=O)[C@@H](C)O (H-GLLKK[2Nal]KTL[Cha]-NH2) | Escherichia coli | 9.5
CC(C)C[C@H](NC(=O)[C@H](CC(C)C)NC(=O)[C@@H](NC(=O)[C@H](CCCCN)NC(=O)[C@H](Cc1ccc2ccccc2c1)NC(=O)[C@H](CCCCN)NC(=O)[C@H](CCCCN)NC(=O)[C@H](CC(C)C)NC(=O)[C@H](CC1CCCCC1)NC(=O)CN)[C@@H](C)O)C(N)=O (H-G[Cha]LKK[2Nal]KTLL-NH2) | Escherichia coli | 9.5
